Hello, the source for this data is PubChem BioAssay (NCI), in case you need it.

Below, each entry is listed alongside its reported TGI.
# Tested on: U251 CNS
# test.protocol: NCI tumour cell line growth inhibition, 48 h
Give your result in µM as a bare value.

CC(C)[Si](OCC1CC(C#N)OC(C)(C)O1)(C(C)C)C(C)C (stereo not given) :: 30

input: # lookup: TGI of O=C1C=C(N2CCN(CCOCCO)CC2)C(=O)c2c(O)ccc(O)c21
output: 15.9

###

# System: SK-OV-3 ovarian
# test.protocol: NCI tumour cell line growth inhibition, 48 h; in the data active = GI50 below about 0.43 µM; inactive = the rest
Respond only with the outcome that fits, drawn from active, inactive

For orientation, consider the following solved cases.
COc1ccc(C2=Nc3c/c(=C\c4c(O)[nH]c5cc(Cl)ccc45)ccc3=N2)cc1 :: inactive
CCOC(=O)c1c(C)n(Cc2ccccc2)c2c1cc1oc(=O)c(=O)n3cnc2c13 :: inactive
[CH3][Sn]1([CH3])[O]CC(COc2cc(Cl)c(Cl)cc2Cl)[O]1 (stereo not given) :: inactive
Nc1c(C(=O)Nc2cccc3ccccc23)sc2nc3c(cc12)C(=O)CCC3 :: active

input: Which outcome was assigned to COc1cccc2c1cc1c3c(cc4c(c32)OCO4)C(=O)N1 in this test?
output: inactive

input: What about O=C(c1ccc2ccccc2c1)c1c(C(F)(F)F)n([O-])c2ccc(F)cc2[n+]1=O ?
output: inactive

input: Can you check CN(C(=O)CNC(=O)/C=C/c1cccc(Cl)c1)C1CCS(=O)(=O)CC1 next?
output: inactive

input: Ok, now COc1ccc(-c2nc(C(=O)c3ccccc3)n(CC(=O)c3ccc(Cl)cc3)c2-c2ccc(OC)cc2)cc1
output: inactive

input: Continue with COc1ccc2c(c1)/C(=N/OC(C)=O)c1c-2cnc2ccccc12
output: inactive

input: Consider next the molecule O=C(Nc1nc2ccccc2s1)c1cc(-c2ccc(F)cc2)n2nc(-c3ccccc3)cc2n1 in the same way.
output: inactive

###

# System: SNB-75 CNS
# test.protocol: NCI tumour cell line growth inhibition, 48 h
Below: a set of entries, each annotated with reported TGI.

Solved cases (8 shown):
Nc1cc2c3c(cccc3c1)C(=O)N(c1ccc(OCCN3CCCC3)cc1)C2=O :: 25.3 µM
CCCCCCCCCCCCO[P+](=O)OCCCCCCCCCCCC :: > 100 µM
O=C1C=C(N2CCN(CCOCCO)CC2)C(=O)c2c(O)ccc(O)c21 :: 30.6 µM
CC/C(=C\c1ccc(OC)cc1)c1ccc(OC)cc1 :: > 100 µM
O=C(c1ccc2ccccc2c1)c1c(C(F)(F)F)n([O-])c2ccc(F)cc2[n+]1=O :: 2.82 µM
CCNC(=S)N/N=C(\C)c1cccc(C)n1 :: > 100 µM
Cc1ccc(S(=O)(=O)NC(CO)C(=O)O)cc1 (stereo unspecified) :: > 100 µM
O=C(CCCCCCCCC(=O)N/N=C\c1cc(Cl)ccc1O)N/N=C\c1cc(Cl)ccc1O :: > 65.9 µM

Would you kindly look at the next entry?
input: Param item = O=C1/C(=C\c2ccccc2)C2OCC=C3CN4CCC56c7ccccc7N1C5C2C3CC46 (stereo unspecified) ; retrieve measured TGI.
output: > 100 µM

###

The reader will find reported TGI values listed item by item below.
# Test system: CCRF-CEM leukemia
# test.protocol: NCI tumour cell line growth inhibition, 48 h

Reference set, count: 3
O=c1[nH]nc(-c2ccccc2)n1-n1cnnc1 :: > 100 µM
Cc1ccc2nc(NC(=O)C(=O)CC(=O)c3cccc4ccccc34)sc2c1 :: > 100 µM
O=CCCCC(Sc1ccccc1)Sc1ccccc1 :: 44.6 µM

input: Request the reported TGI associated with CN/N=C(\C(=O)Nc1ccc(C)c(C)c1)C(C(=O)OC)c1nc2ccc([N+](=O)[O-])cc2[nH]c1=O (centres undefined)
output: > 100 µM

input: Likewise for COc1cc(-c2cc(=O)c3c(O)c(OC)c(OC)c(OC)c3o2)cc(OC)c1OC ?
output: > 100 µM

###

Listing of recorded TGI by entry.
# System: CCRF-CEM leukemia
# test.protocol: NCI tumour cell line growth inhibition, 48 h

O=c1c2ccccc2nc(-c2ccccc2)n1NC(=S)Nc1cccc(Cl)c1 :: > 100 µM
O=Cc1ccc(N2CCN(c3ccc(C=O)cc3)CC2)cc1 :: > 100 µM

input: Record request: TGI value, item COc1cc2ccc3ccncc3c2cc1OC
output: > 10 µM

input: Ok, now C=C(C)[C@@H]1CC[C@]2(CO)CC[C@]3(C)[C@H](CC[C@@H]4[C@@]5(C)CC[C@H](NCO)C(C)(C)[C@@H]5CC[C@]43C)[C@@H]12
output: 3.21 µM

input: Moving on to CCOC(=O)C1=C(C)N(C2OC(COC(=O)c3ccccc3)C(OC(=O)c3ccccc3)C2OC(=O)c2ccccc2)C(=S)NC1c1ccccc1 (configuration not stated)
output: > 100 µM

input: Now this one: C(#Cc1ccccc1)SC1=C(c2ccccc2)S/C(=C(\SC#Cc2ccccc2)c2ccccc2)S1
output: > 100 µM

input: CN(C)CN(C)c1nc(N(C)C)nc(N(C)CN(C)C)n1 ?
output: 61.1 µM

input: Same question, O=S(=O)(O)c1ccc2c(N=Nc3ccc(Sc4ccc(N=Nc5c(O)ccc6cc(S(=O)(=O)O)ccc56)cc4)cc3)c(O)ccc2c1 this time
output: > 100 µM

input: Same read-out for Cc1ccccc1NC(=O)Cc1csc(N=Nc2c(O)[nH]c3ccccc23)n1 ?
output: > 100 µM

input: Would you kindly repeat that for O=P(O)(O)CN1CCNCCN(CP(=O)(O)O)CC1 ?
output: > 70.5 µM

input: What about this molecule? CC1=CC(=O)NP(=O)(C23CC4CC(CC(C4)C2)C3)N1 (configuration not stated)
output: > 100 µM

input: Now this one: N#Cc1nc(/C=C/c2cccnc2)oc1N
output: > 100 µM

input: What do you have for O=C1C=C(N2CCN(CCOCCO)CC2)C(=O)c2c(O)ccc(O)c21 ?
output: 14.8 µM

input: Same for CCOC(=O)c1cc(Br)c(-c2cc(C)co2)[nH]1
output: > 100 µM

input: # repeat for O=C1c2cc([N+](=O)[O-])sc2C(=O)c2c([N+](=O)[O-])csc21
output: 0.389 µM

input: What do you have for O=C1CCC(=O)c2sccc2N1 ?
output: > 100 µM

input: Item: O=C(C=C=Nc1ccccc1)C(=O)N=C=Cc1ccccc1
output: > 100 µM

input: // query: CCCCCCCCCCCCO[P+](=O)OCCCCCCCCCCCC
output: > 100 µM

input: Again, but for NC(=O)Oc1ccccc1
output: > 100 µM

input: Likewise for COc1cccc(NC2=C(Cl)C(=O)N(Cc3ccc(Cl)cc3)C2=O)c1 ?
output: > 68.9 µM

input: Lookup O=C(N/N=C\c1ccc([N+](=O)[O-])s1)c1ccncc1
output: > 29.1 µM

input: Same thing, different molecule: CN1CCN(c2ccc3nc(-c4ccc(OCCCCN5CCN(CCCCN6C(=O)c7cccc8cccc(c78)C6=O)CC5)cc4)[nH]c3c2)CC1
output: > 100 µM

###

# Test system: MDA-MB-231 breast
# test.protocol: NCI tumour cell line growth inhibition, 48 h; in the data active means GI50 below about 0.43 µM; inactive means the rest
Where a SMILES comes first, the peptide text is derived from it. The star is where a group is joined. Trt = c1ccc(C(c2ccccc2)(c2ccccc2)*)cc1; Cbz = O=C(OCc1ccccc1)*
Respond only with the outcome that fits, drawn from class 1 = active, class 0 = inactive

For orientation, consider the following solved cases.
Cn1cc(C2=C(c3cn(CCCCC(=N)N)c4ccccc34)C(=O)NC2=O)c2ccccc21 :: class 0
COc1cc(/C=N/NC(=O)c2ccccc2Nc2cccc(C(F)(F)F)c2)cc(OC)c1OC :: class 0
Cc1ccc(-c2n[nH]c(=O)c3noc(-c4ccc(C)cc4)c23)cc1 :: class 0
CCOC(=O)c1c(C)n(Cc2ccccc2)c2c1cc1oc(=O)c(=O)n3cnc2c13 :: class 0
NC(=O)c1ccc(N(C(N)=O)c2c(F)cccc2F)nc1-c1ccc(F)cc1F :: class 0
CCCCCCCCCCSC(=N)N :: class 0
O=C(Nc1nc2ccccc2s1)c1cc(-c2ccc(F)cc2)n2nc(-c3ccccc3)cc2n1 :: class 0
O=C(Nc1cccc(C(F)(F)F)c1)c1cc2ccccc2cc1O :: class 0
C/C(=N/O)c1ccc(Nc2cc(-n3ccnc3)c3ccccc3n2)cc1 :: class 0
C=C(C)[C@@H]1CC[C@]2(CO)CC[C@]3(C)[C@H](CC[C@@H]4[C@@]5(C)CC[C@H](NCO)C(C)(C)[C@@H]5CC[C@]43C)[C@@H]12 :: class 0

input: Given CN=C(N)N/N=C(\C)c1ccc2c(c1)Cc1ccccc1-2 , state the outcome it received in this test.
output: class 0

input: Another molecule to check: CN(C(=O)CNC(=O)/C=C/c1cccc(Cl)c1)C1CCS(=O)(=O)CC1
output: class 0

input: Next up: COC(=O)C(CSC(c1ccccc1)(c1ccccc1)c1ccccc1)NC(=O)C(CC(N)=O)NC(=O)OCc1ccccc1 (stereo not drawn) (Cbz-Asn-Cys(Trt)-OMe; configuration not given here)
output: class 0
